- protocol_description: ATG_CMV_CIS: Attagene CIS-FACTORIAL HepG2 Assay for human CMV (Internal Marker) (AID 2282928);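 note: endpoint acts as a background internal control marker rather than a target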
- condition_parameters: HepG2 CMV promoter reporter, transcription factor profiling; actives raise or lower the signal
Activity calls are given as the source filed them. Rule for the calls: active = hit-call score of the fitted dose curve at least 0.9, where 1 is the maximum; inactive = score below 0.9.
quantity: outcome

Solved cases below.
compound=COC(=O)CCCCC(=O)OC measured=inactive
compound=CCCCCCCCOC(=O)CCCCCCCCC(=O)OCCCCCCCC measured=inactive
compound="NC(=O)N1C(=O)C(C(=O)c2cc(Cl)cs2)c2cc(F)c(Cl)cc21 (centres undefined)" measured=inactive
compound=CCOC(=O)CC(O)(CC(=O)OCC)C(=O)OCC measured=inactive

Fill in outcome for each of the 5 compounds listed.
1. CC(=O)CC(C)(C)O
2. CCCCCCCCCCCCc1ccccc1S(=O)(=O)O
3. CCCCCCCCCCCCN1CCCC1=O
4. Cc1ccc(S(=O)(=O)O)c(C)c1
5. OC1CCCCC1

["inactive", "inactive", "inactive", "inactive", "inactive"]

====

- Read-out: Interleukin-1 alpha (IL1a), IL1A (gene 3552)
- protocol_description: BSK_KF3CT_IL1a: BioMAP Diversity Plus: KF3CT Assay for Interleukin-1 alpha (IL1a) Biomarker Activity (AID 2283070)
- condition_parameters: primary human keratinocytes with fibroblasts; actives raise or lower the signal
Calls of active or inactive are those of the source. Rule for the calls: active = hit-call score of the fitted dose curve at least 0.9, where 1 is the maximum; inactive = score below 0.9.
quantity: AC50

molecule="OC1CCC(C2CCCCC2)CC1 (centres undefined)" quantity=AC50 measured=inactive
molecule=FC(F)(I)C(F)(F)C(F)(F)C(F)(F)C(F)(F)C(F)(F)I quantity=AC50 measured="7.77 µM (active) [middle of 5 runs]"
molecule=CCCCCCC(=O)O quantity=AC50 measured=inactive
molecule="CCCCC(CC)COC(=O)CCCCC(=O)OCC(CC)CCCC (centres undefined)" quantity=AC50 measured=inactive
molecule=COC(=O)CCCCC(=O)OC quantity=AC50 measured=inactive
molecule="CCC(C)(C)C1CCC(O)CC1 (centres undefined)" quantity=AC50 measured=inactive

Fill in AC50 for each of the 7 molecules listed.
1. CC1=C(/C=C/C(C)=C/C=C/C(C)=C/C(=O)O)C(C)(C)CCC1
2. Cc1cc(CCN2CCN(c3nsc4ccccc34)CC2)cc2c1NC(=O)CC2(C)C
3. CCCCOCCO
4. c1ccc2cc3c(ccc4ccccc43)cc2c1
5. CCOC(=O)CC(O)(CC(=O)OCC)C(=O)OCC
6. CN1CCC[C@H]1c1cccnc1
7. NC(=O)N1C(=O)C(C(=O)c2cc(Cl)cs2)c2cc(F)c(Cl)cc21 (centres undefined)

1. 33.6 µM (active)
2. 26.6 µM (active)
3. inactive
4. inactive
5. inactive
6. inactive
7. 12.9 µM (active)

Consider the molecule COc1ccc([N+](=O)[O-])cc1N and give its measured AC50.
inactive

====

- Read-out: Cytochrome P450 3A7 (Homo sapiens)
- protocol_description: LTEA_HepaRG_CYP3A7: Life Technologies and Expression Analysis (LTEA) Assay for CYP3A7 using HepaRG (AID 2283492)
- condition_parameters: mRNA level, 48 h; actives raise or lower the signal
- Procedure: LTEA_HepaRG is a cell based, multiplexed-readout assay that uses HepaRG, a human liver cell line, with measurements taken at 48 hours after chemical dosing on a 96-well plate.LTEA_HepaRG_CYP3A7 is one of 102 assay component(s) measured in the LTEA HepaRG cell culture assay. It is a marker of NR mediated metabolism/Undifferentiated hepatocyte.Data from the assay component LTEA_HepaRG_CYP3A7 was analyzed into 1 endpoint. […]
The source made the active and inactive calls. The calls were made as follows: active = hit-call score of the fitted dose curve at least 0.9, where 1 is the maximum; inactive = score below 0.9.
One label from this list, please: active, inactive

Worked set:
molecule=CC(=O)CC(C)(C)O label_value=inactive
molecule="OC1CCC(C2CCCCC2)CC1 (configuration not stated)" label_value=inactive

Which outcome did this test record for the molecule CCCCC(CC)COC(=O)CCCCC(=O)OCc1ccccc1 (configuration not stated) ?
inactive

Which outcome did this test record for the molecule CCCCCCCCOC(=O)CCCCCCCCC(=O)OCCCCCCCC ?
inactive

Which outcome did this test record for the molecule CC(C)(C)c1ccc(O)c(C(C)(C)C)c1 ?
inactive

Which outcome did this test record for the molecule c1ccc2c(c1)Cc1ccccc1-2 ?
inactive

Which outcome did this test record for the molecule CCCCOCCO ?
inactive

Which outcome did this test record for the molecule CC[C@H](c1ccc(O)cc1)[C@@H](CC)c1ccc(O)cc1 ?
inactive

These entries and their values trace back to PubChem BioAssay (EPA / NIEHS).
